Value source: ChEMBL document CHEMBL4359921

- TARGET OF ASSAY: NAD(P)H dehydrogenase [quinone] 1 (Homo sapiens, UniProt P15559)
- Sequence (P15559 whole entry): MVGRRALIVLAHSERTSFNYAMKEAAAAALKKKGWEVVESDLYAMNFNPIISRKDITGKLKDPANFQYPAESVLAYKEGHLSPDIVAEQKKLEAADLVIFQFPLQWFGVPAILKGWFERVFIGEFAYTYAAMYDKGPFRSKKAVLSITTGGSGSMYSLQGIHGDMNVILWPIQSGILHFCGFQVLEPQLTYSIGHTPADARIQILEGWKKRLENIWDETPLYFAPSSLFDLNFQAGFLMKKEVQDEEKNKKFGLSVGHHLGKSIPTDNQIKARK
- ASSAY NOTES: Inhibition of recombinant human NQO1 expressed in Escherichia coli using DCPIP as substrate by spectrophotometry
- SETUP CONDITIONS: read-out: IC50
MEASURED PROPERTY: pIC50
Answers are plain numbers, as −log10 of the molar value.

Data request: Bench note: what pIC50 did `COc1ccc2nc(-c3ccccc3)cc(N/N=C/c3c[nH]cn3)c2c1` show?
Data returned: 6.37
